Experiment: self-splicing fitness, log relative to wild type (ln ratio); higher = more splicing; Tetrahymena group I intron in knt gene, E. coli kanamycin selection, DiMSum; sequences stand for … in CUCUCU…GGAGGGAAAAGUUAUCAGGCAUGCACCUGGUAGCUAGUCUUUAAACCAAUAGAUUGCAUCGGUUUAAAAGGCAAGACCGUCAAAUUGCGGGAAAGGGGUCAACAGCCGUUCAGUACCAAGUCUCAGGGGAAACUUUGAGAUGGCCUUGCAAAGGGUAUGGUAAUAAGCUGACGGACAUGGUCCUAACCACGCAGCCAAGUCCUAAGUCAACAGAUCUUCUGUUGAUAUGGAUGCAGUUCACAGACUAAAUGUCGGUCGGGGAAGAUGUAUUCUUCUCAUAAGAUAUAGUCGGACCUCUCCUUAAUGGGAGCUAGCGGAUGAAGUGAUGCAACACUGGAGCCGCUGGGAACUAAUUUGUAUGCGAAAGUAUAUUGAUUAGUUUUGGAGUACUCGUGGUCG;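 further: selection with 25 µg/mL kanamycin versus none on LB agar overnight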
Details: 37 °C
Result Type: self-splicing fitness (ln)

[[record]]
ordered_residues = "CCUUAGCAAUAUUACGACUG"
test_result = -0.308

[[record]]
ordered_residues = "GUUGAGCAAUAUUACGGUCU"
test_result = -2.56

[[record]]
ordered_residues = "GAGGAGCAAUAUUACGCGGA"
test_result = -2.76

[[record]]
ordered_residues = "UUUUAGCAAUAUUACGUCCA"
test_result = -0.545

[[record]]
ordered_residues = "GUCGAGCAAUAUUACGAGGA"
test_result = -2.44

[[record]]
ordered_residues = "UGCGAGCAAUAUUACGUACU"
test_result = -1.23

[[record]]
ordered_residues = "UCAUAGCAAUAUUACGCGCA"
test_result = 0.225

[[record]]
ordered_residues = "GGACAGCAAUAUUACGUGAU"
test_result = -0.0525

[[record]]
ordered_residues = "AAAAAGCAAUAUUACGGAGC"
test_result = -2.1

[[record]]
ordered_residues = "UAAGAGCAAUAUUACGCCGG"
test_result = -1.72

[[record]]
ordered_residues = "UGGCAGCAAUAUUACGUAGA"
test_result = -0.264

[[record]]
ordered_residues = "GGGUAGCAAUAUUACGAUUA"
test_result = -0.00462

[[record]]
ordered_residues = "UCAUAGCAAUAUUACGGCCC"
test_result = -1.11

[[record]]
ordered_residues = "AUUCAGCAAUAUUACGCUUA"
test_result = -0.332

[[record]]
ordered_residues = "GGCAAGCAAUAUUACGAUUG"
test_result = -1.64

[[record]]
ordered_residues = "GUGGAGCAAUAUUACGUACU"
test_result = -2.2

